Exercise: state measured melting point for each of the molecules provided.

IN: Please report melting point for the following molecule: "OC(c1ccccc1)(c1ccccc1)C1CCN(Cc2ccccc2)CC1"
OUT: 89.5 to 90.5 °C

IN: Kindly indicate its recorded melting point. Item: Cc1cc(C(=O)N2CC(O)C2)ncc1C(c1cc(F)ccc1F)S(=O)(=O)c1ccc(F)cc1 (stereo not drawn)
OUT: 219 to 221 °C

IN: Let me know recorded melting point for "CCOC(=O)c1cc(C(=O)NC)nc(C(=O)NC)c1N" , thanks.
OUT: 185 to 186 °C

IN: Output melting point of CC(C)CN1C(=O)N(C)C2(NC(=O)NC2=O)c2cc(Cl)ccc21 (stereo not drawn)
OUT: 118 °C

IN: Annotate the molecule "O=C(Nc1nccs1)c1nc(-c2cccc3ccccc23)[nH]c1-c1ccccc1" with its measured melting point.
OUT: > 250 °C

IN: Please indicate melting point recorded for "O=C(O)c1csc(C(F)F)c1"
OUT: 131 to 132 °C

IN: Return reported melting point. Input molecule: "Oc1ccc(F)cc1-c1cc(-c2ccc(-c3ccccc3)cc2)cc(-c2ccc3ccccc3c2)n1"
OUT: 187 to 188 °C

IN: Please indicate melting point recorded for Cc1ccc(S(=O)(=O)N2c3ccccc3C(c3ccccc3)(c3ccccc3)C2NC(=O)Nc2ccc(F)cc2F)cc1 (stereo not drawn)
OUT: 244 to 246 °C

====

PROPERTY: melting point

IN: Supply melting point value. Item: "CCOc1ccc(NC(=O)NCCCOc2cccc(CN3CCCCC3)c2)cc1"
OUT: 109 to 111 °C

IN: Determine from records and report melting point for "CC(C)(C)OC(=O)Nc1ccc(Cl)nc1"
OUT: 126 to 127 °C

IN: Provide one value: measured melting point of "COc1cc(C(C)C)c2c(c1)S(=O)(=O)N(COc1cc(C(F)(F)F)nn1-c1cccc(C(F)(F)F)n1)C2=O"
OUT: 149 to 150 °C

IN: Query melting point for CC(NC1(C(=O)O)CCCC1)C(=O)N1CCCC1C(=O)O (stereo not drawn)
OUT: 142 to 145 °C

IN: Return value of melting point for input "O=C(O)CCc1c(-c2cc(Cl)ccc2O)c2cc(C(F)(F)F)ccc2[nH]c1=O" , no commentary.
OUT: 255 to 258 °C

IN: // fetch melting point given entry "Cc1cccnc1-n1c(C)nc2ccccc2c1=O"
OUT: 135 to 137 °C

IN: Please look at this molecule and report its melting point: O=C(CN1CCSCC1)N1CCC(C2c3ccc(Cl)c(Br)c3CCc3cc(Br)cnc32)CC1 (stereo not drawn)
OUT: 172 to 174 °C

IN: Look up and state reported melting point for "COc1ccc(CCNc2nc(N)n3nc(-c4ccco4)nc3n2)cc1"
OUT: 211 to 213 °C

====

Please provide measured melting point for the entries that follow.

IN: State, in one line, measured melting point of CCOP(=O)(OCC)C1=C(C(=O)OC(c2ccccc2)c2ccccc2)N2C(=O)C(NC(=O)COc3ccccc3)C2CC1 (stereo not drawn)
OUT: 70 to 74 °C

IN: Determine its reported melting point: N#Cc1csc(N2C(=O)C(Cc3ccccc3)NC2=S)n1 (stereo not drawn)
OUT: 214 to 216 °C

IN: For the molecule "CCn1ncc2c3noc(-c4cccc(Cl)c4)c3cnc21" , give its measured melting point value.
OUT: 207 to 209 °C

====

PROPERTY: melting point

IN: Identify measured melting point corresponding to "O=C(Nc1ccccc1)C1=C(O)c2cccc(-c3ccccc3)c2OS1"
OUT: 175 °C

IN: Consider the molecule "Cc1c(CC(=O)OCCO)cc(-c2ccc(S(C)(=O)=O)cc2)n1-c1ccc(F)cc1" and give its recorded melting point.
OUT: 129 to 131 °C

IN: Specify reported melting point for the molecule shown: N#CC1(c2ccc(F)cc2)CCC(N2CCN(c3cccnn3)CC2)CC1 (stereo unspecified)
OUT: 189 °C

IN: Tell me its melting point given "Cc1nc(-c2ccc(Cl)cc2Cl)c(Br)n1C(F)F" as the entry.
OUT: 81 to 83 °C

IN: Identify measured melting point associated with "O=S(=O)(Nc1ccc(Cl)cc1Oc1ccc(Cl)cc1Cl)C(F)(F)F"
OUT: 97 to 98 °C

IN: Name the recorded melting point of the molecule listed here: "CCOC(=O)CN(CCc1ccccc1)C(=O)CCc1nc2c(F)c(F)cc(F)c2s1"
OUT: 78 to 81 °C

IN: Read off the recorded melting point for "Cc1ccc(S(=O)(=O)NCCN(CCNS(=O)(=O)c2ccc(C)cc2)Cc2ccccc2)cc1"
OUT: 87 to 91 °C

IN: Could you please provide reported melting point for "COc1ccc(CNC(=O)c2ccc(Cl)cc2OCC(=O)O)cc1" ? Thanks!
OUT: 178 to 179 °C

IN: Supply reported melting point belonging to this molecule: CC12CCC3c4ccc(C(=O)O)cc4CCC3C1CCC2C(=O)CCc1ccc(F)cc1 (stereo unspecified)
OUT: 224 to 227 °C

IN: Quote melting point reported for "Cn1ncc2c1-c1c(Oc3ccc(CC(=O)O)cc3)sc(C(N)=O)c1CC2" please.
OUT: 213 to 214 °C

IN: Write down melting point measured for item "CCN(c1nc(C)cc(C)n1)c1ccc(C(C)C)cc1S(C)(=O)=O"
OUT: 174 to 175 °C

IN: Assign melting point to the following record: "COc1cc2c(cc1Nc1ncc(Cl)c(Nc3ccc(N(C)C)cc3OC)n1)CCN(CC(=O)N(C)C)CC2"
OUT: 69 to 83 °C

IN: // fetch melting point given entry "O=C1CCCCN1C1=CC(CF)(CF)Oc2ccc(C(F)(F)C(F)(F)F)cc21"
OUT: 149 to 150 °C

IN: Look up melting point of "O=C(O)c1ccc2oc([N+](=O)[O-])c(-c3ccccc3)c2c1" and report it.
OUT: 271 to 273 °C

IN: Dear colleague, please send me the reported melting point for "C[C@@H](n1ncn(-c2ccc(-n3ccn(-c4ccc(OCC(F)(F)C(F)F)cc4)c3=O)cc2)c1=O)[C@](O)(Cn1cncn1)c1ccc(F)cc1F" when you can.
OUT: 181 to 183 °C

IN: Respond only with melting point recorded for "O=C(O)Cn1c(=O)c(=O)[nH]c2ccc3ccc(-n4ccc(CN5CCc6ccccc6C5)c4)cc3c21"
OUT: > 250 °C

IN: Dear colleague, please send me the reported melting point for "CNc1ccc(N2C(=O)c3ccccc3C2=O)c(C)c1" when you can.
OUT: 159 to 161 °C

IN: Name the recorded melting point of the molecule listed here: O=C(C=Cc1cccnc1)N1CCc2c([nH]c3ccccc23)C1c1ccc2c(c1)OCO2 (stereo unspecified)
OUT: 240 °C

IN: Provide only the value of recorded melting point for "Cc1cc2cc(CN3CCCC3)cnc2cc1NC(=O)c1ccc(-c2ccccc2)cc1F"
OUT: 180 to 183 °C

IN: Complete the entry with melting point for "CS(=O)(=O)Nc1cc(OCCNC2CCCC2)ccc1C(=O)Nc1ccccc1"
OUT: 231 to 232 °C

IN: Assign melting point to the following record: COc1cccc([C@]23CCN(C)C(=O)[C@@H]2CCC2(C3)OCCO2)c1 (relative stereo)
OUT: 180 to 181 °C

IN: Fill in reported melting point for this entry: "CN(C)CN(C(=O)c1ccc(Cl)cc1Cl)c1ccc(C(=O)N2Cc3cccn3Cc3ccccc32)cc1"
OUT: 126 to 129 °C

IN: Find the measured melting point of "O=C(O)C(=O)c1ccc(OC/C=C/c2ccccc2)cc1" and report it.
OUT: 103 to 105 °C

IN: Fill in melting point for record CCCCC1Cc2c(c3cccnc3n(-c3ccccc3)c2=O)O1 (stereo unspecified)
OUT: 179 to 180 °C

IN: Complete the entry with melting point for "COc1ccccc1NC(=O)Nc1nc2nc(NCCCN3CCN(C)CC3)ncc2cc1-c1c(Cl)cccc1Cl"
OUT: 152 to 154 °C

IN: State, in one line, measured melting point of "CNC(=S)c1c(C(F)(F)F)nc(C(F)F)c(C(=O)OC)c1NC(C)C"
OUT: 129 to 131 °C

IN: Specify melting point for O=C1NC(=O)C2(CC(Br)c3ccccc32)N1 (stereo unspecified) and stop.
OUT: 58 to 65 °C

IN: Please indicate melting point recorded for "CC(C)(C)Oc1cccc(Cl)c1C(=O)O"
OUT: 117 to 119 °C

IN: Specify melting point for "COc1ccc2cc(-c3nn(C)c4cc(OC)ccc34)ccc2c1" and stop.
OUT: 166 to 168 °C

IN: Identify the reported melting point for the following entry. O=C(Nc1ccc2c3c(oc2c1)CCC(O)C3O)c1c(Cl)cccc1Cl (stereo unspecified)
OUT: 206 to 209 °C

IN: Recall and state the measured melting point for CC(C)C(=O)Nc1ccc(OCC(O)CNC(C)(C)C)c(C#N)c1 (stereo unspecified) .
OUT: 118 to 121 °C

====

Kindly state melting point for each of the entries shown.

IN: Complete the entry with melting point for "O=CN1CCN(c2nc(N3CCSCC3)c3ncnc(NCc4ccccc4)c3n2)CC1"
OUT: 94 to 96 °C

IN: Complete the entry with melting point for "COC(=O)c1cc2c(S(=O)(=O)Cl)cc(Cl)c(Cl)c2o1"
OUT: 199 to 200 °C

IN: Provide one value: measured melting point of "NS(=O)(=O)c1cccc(C2(O)CCCCC2)c1"
OUT: 172 to 176 °C

IN: Answer with reported melting point of CC(CCCc1ccccc1)c1cc2c(cc1O)C1C(=O)CCCC1C(C)(C)O2 (stereo unspecified)
OUT: 108 to 115 °C

IN: Return reported melting point. Input molecule: "Cc1c(C)c(O)c([N+](=O)[O-])c(C)c1O"
OUT: 105 to 106 °C

IN: Please give the documented melting point of "Cc1cccc(C)c1N1CCN(CCNc2c(Cl)cnn(C)c2=O)CC1"
OUT: 225 to 232 °C

IN: Dear colleague, please send me the reported melting point for "CSc1c(Cl)ccc(C(=O)O)c1SC" when you can.
OUT: 130 to 131 °C

IN: Give reported melting point value for "CC1(C)CON(Cc2ccc(NC(=O)c3ncccc3C(=O)O)cc2Cl)C1=O"
OUT: 94 to 96 °C

IN: Provide one value: measured melting point of "CC(C)c1cccc(C(C)C)c1NS(=O)(=O)CC#N"
OUT: 195 to 197 °C

IN: Return melting point (reported value) for this molecule: "CCCc1ccc(-c2ccc(CCc3ccc(Cl)c(F)c3)cc2)cc1"
OUT: 63.6 °C

IN: In one line, give reported melting point of the entry "Cc1c2c(nc3ccccc13)CCN(C(N)=S)CC2" .
OUT: 218 °C
